- Tested on: rodent lifetime carcinogenesis bioassay, tumor incidence TD50
- Assay Overview: carcinogenic potency in animals, long-term in vivo studies, CPDB compilation (AID 1745844)
- Assay Setup: rat; strain Wistar; males; inhaled; site: kidney; lesion: cystadenoma; dosed 78 weeks; study length 157 weeks

>  <Smiles Text>
ClC#CCl

>  <Test Target>
rodent lifetime carcinogenesis bioassay, tumor incidence TD50

>  <TD50>
3.34 mg/kg/day

$$$$

* * *

- System: rodent lifetime carcinogenesis bioassay, tumor incidence TD50
- Assay Overview: carcinogenic potency in animals, long-term in vivo studies, CPDB compilation (AID 1745844)
- Assay Setup: rat; strain Buffalo; females; in feed; site: ear duct; lesion: squamous-cell carcinoma; dosed 86 weeks; study length 86 weeks

>  <Smiles Text>
CC(=O)Nc1ccc2c(c1)C(=O)c1ccccc1-2

>  <Test Target>
rodent lifetime carcinogenesis bioassay, tumor incidence TD50

>  <TD50>
32 mg/kg/day

$$$$

* * *

- Tested on: rodent lifetime carcinogenesis bioassay, tumor incidence TD50
- Assay Overview: carcinogenic potency in animals, long-term in vivo studies, CPDB compilation (AID 1745844)
- Assay Setup: rat; strain Fischer 344; males; in feed; site: tongue; lesion: squamous-cell papilloma; dosed 12 weeks; study length 103 weeks

>  <Smiles Text>
OCC(CO)(CBr)CBr

>  <U>
mg/kg/day

>  <TD50>
30.8

$$$$

* * *

- Tested on: rodent lifetime carcinogenesis bioassay, tumor incidence TD50
- Assay Overview: carcinogenic potency in animals, long-term in vivo studies, CPDB compilation (AID 1745844)
- Assay Setup: rat; strain Fischer 344; females; by gavage; site: uterus; lesion: several types; types named in the paper; dosed 30 weeks; study length 104 weeks

>  <Smiles Text>
C=CCN(N=O)C(N)=O

>  <TD50>
1.87 mg/kg/day

$$$$

* * *

- Test system: rodent lifetime carcinogenesis bioassay, tumor incidence TD50
- Assay Overview: carcinogenic potency in animals, long-term in vivo studies, CPDB compilation (AID 1745844)
- Assay Setup: mouse; strain B6C3F1; females; inhaled; site: lung; lesion: alveolar/bronchiolar adenoma; dosed 105 weeks; study length 105 weeks
Observation Type: TD50

>  <Smiles Text>
[O]=[Mo](=[O])=[O]

>  <Test Target>
rodent lifetime carcinogenesis bioassay, tumor incidence TD50

>  <Observation Type>
TD50

>  <Result>
97.8 mg/kg/day

$$$$

* * *

- System: rodent lifetime carcinogenesis bioassay, tumor incidence TD50
- Assay Overview: carcinogenic potency in animals, long-term in vivo studies, CPDB compilation (AID 1745844)
- Assay Setup: mouse; strain B6C3F1; females; in drinking water; site: forestomach; lesion: squamous-cell carcinoma + squamous-cell papilloma; dosed 104 weeks; study length 104 weeks

>  <Smiles Text>
O=NO

>  <Test Target>
rodent lifetime carcinogenesis bioassay, tumor incidence TD50

>  <U>
mg/kg/day

>  <TD50>
1610

$$$$

* * *

- System: rodent lifetime carcinogenesis bioassay, tumor incidence TD50
- Assay Overview: carcinogenic potency in animals, long-term in vivo studies, CPDB compilation (AID 1745844)
- Assay Setup: rat; strain Long-Evans BLU:(LE); males; in drinking water; site: any site (literature study); lesion: several types; types named in the paper; dosed 136 weeks; study length 136 weeks
Active and inactive are the calls of the source. The rule behind the calls is not given here.

>  <Smiles Text>
[O]=[W](=[O])([OH])[OH]

>  <Test Target>
rodent lifetime carcinogenesis bioassay, tumor incidence TD50

>  <TD50>
40.1 mg/kg/day (inactive)

$$$$

* * *

- Test system: rodent lifetime carcinogenesis bioassay, tumor incidence TD50
- Assay Overview: carcinogenic potency in animals, long-term in vivo studies, CPDB compilation (AID 1745844)
- Assay Setup: rat; strain ACI; females; in feed; site: ileum; lesion: adenoma; dosed 124 weeks; study length 124 weeks
Observation Type: TD50

>  <Smiles Text>
Cc1nc(N)cc2[nH]c3ccccc3c12

>  <Result>
41.4 mg/kg/day

$$$$

* * *

- Test system: rodent lifetime carcinogenesis bioassay, tumor incidence TD50
- Assay Overview: carcinogenic potency in animals, long-term in vivo studies, CPDB compilation (AID 1745844)
- Assay Setup: rat; strain Fischer 344; males; in feed; site: pancreatic islets; lesion: islet-cell adenoma; dosed 104 weeks; study length 104 weeks
Observation Type: TD50 (mg/kg/day)

>  <Smiles Text>
Cc1ncc[nH]1

>  <Observation Type>
TD50

>  <Readout Number>
1010

$$$$

* * *

- System: rodent lifetime carcinogenesis bioassay, tumor incidence TD50
- Assay Overview: carcinogenic potency in animals, long-term in vivo studies, CPDB compilation (AID 1745844)
- Assay Setup: hamster; strain Syrian Golden; males; in feed; site: liver; lesion: hepatoma; dosed 114 weeks; study length 114 weeks
Calls of active or inactive are those of the source. The rule behind the calls is not given here.

>  <Smiles Text>
ClC1=C(Cl)[C@]2(Cl)[C@@H]3[C@@H]4C[C@@H]([C@H]5O[C@@H]45)[C@@H]3[C@@]1(Cl)C2(Cl)Cl

>  <Test Target>
rodent lifetime carcinogenesis bioassay, tumor incidence TD50

>  <TD50>
198 mg/kg/day (inactive)

$$$$

* * *

- Test system: rodent lifetime carcinogenesis bioassay, tumor incidence TD50
- Assay Overview: carcinogenic potency in animals, long-term in vivo studies, CPDB compilation (AID 1745844)
- Assay Setup: rat; strain Fischer 344; males; in drinking water; site: lung; lesion: adenosquamous carcinoma; dosed 118 weeks; study length 128 weeks
Observation Type: TD50

>  <Smiles Text>
CN(CCCC(=O)c1cccnc1)N=O

>  <Result>
1.46 mg/kg/day

$$$$

* * *

- Tested on: rodent lifetime carcinogenesis bioassay, tumor incidence TD50
- Assay Overview: carcinogenic potency in animals, long-term in vivo studies, CPDB compilation (AID 1745844)
- Assay Setup: mouse; strain B6C3F1; males; inhaled; site: liver; lesion: hemangioma + hemangiosarcoma; dosed 95 weeks; study length 95 weeks

>  <Smiles Text>
FC(F)=C(F)F

>  <TD50>
87 mg/kg/day

$$$$

* * *

- Tested on: rodent lifetime carcinogenesis bioassay, tumor incidence TD50
- Assay Overview: carcinogenic potency in animals, long-term in vivo studies, CPDB compilation (AID 1745844)
- Assay Setup: mouse; strain B6C3F1; males; in feed; site: kidney; lesion: tubular adenoma; dosed 103 weeks; study length 103 weeks
Observation Type: TD50 (mg/kg/day)

>  <Smiles Text>
COP(=O)(OC)OC(=CCl)c1cc(Cl)c(Cl)cc1Cl

>  <Observation Type>
TD50

>  <Readout Number>
37600

$$$$

* * *

- Test system: rodent lifetime carcinogenesis bioassay, tumor incidence TD50
- Assay Overview: carcinogenic potency in animals, long-term in vivo studies, CPDB compilation (AID 1745844)
- Assay Setup: mouse; strain B6C3F1; males; by gavage; site: any site (literature study); lesion: several types; types named in the paper; dosed 104 weeks; study length 105 weeks
Observation Type: TD50 (mg/kg/day)

>  <Smiles Text>
c1ccoc1

>  <Observation Type>
TD50

>  <U>
mg/kg/day

>  <Readout Number>
5.43

$$$$
>  <Smiles Text>
OC[P+](CO)(CO)CO

>  <Observation Type>
TD50

>  <U>
mg/kg/day

>  <Readout Number>
47.3

$$$$
>  <Smiles Text>
ClC=CCCl

>  <Observation Type>
TD50

>  <U>
mg/kg/day

>  <Readout Number>
309

$$$$

* * *

- System: rodent lifetime carcinogenesis bioassay, tumor incidence TD50
- Assay Overview: carcinogenic potency in animals, long-term in vivo studies, CPDB compilation (AID 1745844)
- Assay Setup: mouse; strain B6C3F1; males; inhaled; site: all sites; lesion: hemangiosarcoma; dosed 102 weeks; study length 104 weeks
Observation Type: TD50 (mg/kg/day)

>  <Smiles Text>
ClCCl

>  <Observation Type>
TD50

>  <Readout Number>
12900

$$$$

* * *

- System: rodent lifetime carcinogenesis bioassay, tumor incidence TD50
- Assay Overview: carcinogenic potency in animals, long-term in vivo studies, CPDB compilation (AID 1745844)
- Assay Setup: rat; strain Fischer 344; males; by gavage; site: kidney; lesion: tubular-cell adenoma; dosed 103 weeks; study length 105 weeks
Observation Type: TD50

>  <Smiles Text>
COc1c2occc2cc2ccc(=O)oc12

>  <Test Target>
rodent lifetime carcinogenesis bioassay, tumor incidence TD50

>  <Observation Type>
TD50

>  <Result>
43.2 mg/kg/day

$$$$

* * *

- Test system: rodent lifetime carcinogenesis bioassay, tumor incidence TD50
- Assay Overview: carcinogenic potency in animals, long-term in vivo studies, CPDB compilation (AID 1745844)
- Assay Setup: mouse; strain AP Alderly Park; males; in feed; site: any site (literature study); lesion: several types; types named in the paper; dosed 100 weeks; study length 100 weeks
The source made the active and inactive calls. The rule behind the calls is not given here.

>  <Compound>
O=CC(O)C(O)C(O)C(O)CO (stereo unspecified)

>  <TD50>
132000 mg/kg/day (inactive)

$$$$

* * *

- Test system: rodent lifetime carcinogenesis bioassay, tumor incidence TD50
- Assay Overview: carcinogenic potency in animals, long-term in vivo studies, CPDB compilation (AID 1745844)
- Assay Setup: rat; strain Sprague-Dawley; males; in drinking water; site: nasal cavity; lesion: several types; types named in the paper; dosed 118 weeks; study length 147 weeks

>  <Smiles Text>
O=NN(CCO)CCO

>  <TD50>
168 mg/kg/day

$$$$
